Test system: A549 NSCLC
Assay: NCI tumour cell line growth inhibition, 48 h
endpoint: GI50

{"compound": "COc1ccc(NC(=O)c2cc(OC)c(OC)c(OC)c2)cc1O", "result": "4590 nM"}
{"compound": "C[C@H]1[C@@H](OCC(CO[C@H]2O[C@@H]3O[C@@]4(C)CC[C@H]5[C@H](C)CC[C@@H]([C@H]2C)[C@@]35OO4)=NOCC(=O)O)OC2O[C@@]3(C)CC[C@H]4[C@H](C)CC[C@@H]1[C@@]24OO3 (some centres undefined)", "result": "86.5 nM"}
{"compound": "COc1ccc(/C=C(\\C#N)c2cc3ccccc3n2C)cc1", "result": "514 nM"}
{"compound": "O=C(/C=C\\c1ccnc2ccccc12)c1ccc([N+](=O)[O-])cc1", "result": "> 41100 nM"}

Each recorded value in this set is attributed to PubChem BioAssay (NCI).
